experiment: Metabolic stability of liver microsomes in vitro; format: in vitro ADME; details: Mouse liver microsomes 0.5 mg/mL, compound 1 μM
Counter-ions that a name gives are not always drawn.
Reported values of CLint scaled at 1 μM for individual entries
PARAMETER MEASURED: CLint scaled at 1 μM

| COMPOUND | EXPERIMENTAL VALUE |
| --- | --- |
| COCCNCc1ccc(-c2cc3nccc(Oc4ccc(NC(=O)C5(C(=O)Nc6ccc(F)cc6)CC5)cc4F)c3s2)nc1 [Sitravatinib, reference compound] | 460 mL/min/kg |
| [2H]C([2H])([2H])OCCNCc1ccc(-c2cc3nccc(Oc4ccc(NC(=O)C5(C(=O)Nc6ccc(F)cc6)CC5)cc4F)c3s2)nc1 [Trifluoroacetate of 001] | 321 mL/min/kg |
| [2H]C([2H])([2H])OC([2H])([2H])CNCc1ccc(-c2cc3nccc(Oc4ccc(NC(=O)C5(C(=O)Nc6ccc(F)cc6)CC5)cc4F)c3s2)nc1 [Hydrochloride of 002] | 301 mL/min/kg |

---

Reported values of Cmax for individual entries
test: Pharmacokinetic evaluation in rats after oral administration; format: in vivo; settings: Sprague-Dawley, plasma, 5 mg/kg, SD rat (male), 5 mpk
PARAMETER MEASURED: Cmax (nM)

| COMPOUND | EXPERIMENTAL VALUE |
| --- | --- |
| COCCNCc1ccc(-c2cc3nccc(Oc4ccc(NC(=O)C5(C(=O)Nc6ccc(F)cc6)CC5)cc4F)c3s2)nc1 [Sitravatinib, reference compound] | 801 |
| [2H]C([2H])([2H])OCCNCc1ccc(-c2cc3nccc(Oc4ccc(NC(=O)C5(C(=O)Nc6ccc(F)cc6)CC5)cc4F)c3s2)nc1 [Trifluoroacetate of 001] | 930 |

---

These compounds were tested on VEGFR3 (Homo sapiens); pIC50 is the recorded read-out.
Sequence (P35916 25-1363): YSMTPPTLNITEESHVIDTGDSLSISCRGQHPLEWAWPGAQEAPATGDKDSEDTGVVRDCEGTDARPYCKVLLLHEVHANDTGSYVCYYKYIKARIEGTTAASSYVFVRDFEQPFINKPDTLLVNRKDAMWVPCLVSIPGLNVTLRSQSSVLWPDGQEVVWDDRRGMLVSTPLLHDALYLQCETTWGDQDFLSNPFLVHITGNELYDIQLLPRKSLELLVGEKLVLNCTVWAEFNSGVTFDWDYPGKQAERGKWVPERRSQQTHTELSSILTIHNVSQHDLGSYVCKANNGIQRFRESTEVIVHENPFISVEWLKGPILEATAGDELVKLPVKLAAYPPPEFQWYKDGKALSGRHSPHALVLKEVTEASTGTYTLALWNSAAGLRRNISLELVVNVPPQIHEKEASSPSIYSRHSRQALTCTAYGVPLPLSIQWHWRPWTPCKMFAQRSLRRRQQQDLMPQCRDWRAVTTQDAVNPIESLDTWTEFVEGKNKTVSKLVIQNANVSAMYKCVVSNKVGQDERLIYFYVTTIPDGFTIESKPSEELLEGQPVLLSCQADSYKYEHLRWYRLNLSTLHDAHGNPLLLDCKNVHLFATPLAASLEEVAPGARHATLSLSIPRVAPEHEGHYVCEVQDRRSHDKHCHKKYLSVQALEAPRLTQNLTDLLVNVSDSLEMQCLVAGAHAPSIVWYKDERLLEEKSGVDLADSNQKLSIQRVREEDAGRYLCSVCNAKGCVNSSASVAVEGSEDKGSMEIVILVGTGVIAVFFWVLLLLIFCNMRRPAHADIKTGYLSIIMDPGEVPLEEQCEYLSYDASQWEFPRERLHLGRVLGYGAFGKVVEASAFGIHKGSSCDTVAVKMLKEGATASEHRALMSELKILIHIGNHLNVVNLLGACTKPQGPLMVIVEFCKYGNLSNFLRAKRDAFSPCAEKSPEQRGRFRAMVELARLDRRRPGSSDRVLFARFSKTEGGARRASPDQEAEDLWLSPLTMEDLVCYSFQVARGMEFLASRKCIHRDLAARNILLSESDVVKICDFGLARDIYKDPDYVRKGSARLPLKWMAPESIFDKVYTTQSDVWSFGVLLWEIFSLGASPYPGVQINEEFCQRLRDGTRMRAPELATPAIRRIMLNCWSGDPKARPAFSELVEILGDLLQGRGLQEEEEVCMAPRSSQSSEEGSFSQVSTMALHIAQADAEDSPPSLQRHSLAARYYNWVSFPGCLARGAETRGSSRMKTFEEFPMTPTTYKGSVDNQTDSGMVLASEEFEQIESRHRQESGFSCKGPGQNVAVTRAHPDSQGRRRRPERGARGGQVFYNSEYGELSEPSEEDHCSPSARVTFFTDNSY
pIC50: −log10 of the molar value. Where a name gives a salt, the structure may show the parent alone.
PARAMETER MEASURED: pIC50

| COMPOUND | PARAMETER MEASURED | EXPERIMENTAL VALUE |
| --- | --- | --- |
| [2H]C([2H])([2H])OCCNCc1ccc(-c2cc3nccc(Oc4ccc(NC(=O)C5(C(=O)Nc6ccc(F)cc6)CC5)cc4F)c3s2)nc1 [Trifluoroacetate of 001] | pIC50 | 8.55 |
| [2H]C([2H])([2H])OC([2H])([2H])CNCc1ccc(-c2cc3nccc(Oc4ccc(NC(=O)C5(C(=O)Nc6ccc(F)cc6)CC5)cc4F)c3s2)nc1 [Hydrochloride of 002] | pIC50 | 8.67 |

---

Reported values of CLint scaled at 1 μM for individual entries
experiment: Metabolic stability of liver microsomes in vitro; type: in vitro ADME; conditions: Human liver microsomes 0.5 mg/mL, compound 1 μM
Counter-ions that a name gives are not always drawn.

| COMPOUND | CLint scaled at 1 μM |
| --- | --- |
| COCCNCc1ccc(-c2cc3nccc(Oc4ccc(NC(=O)C5(C(=O)Nc6ccc(F)cc6)CC5)cc4F)c3s2)nc1 [Sitravatinib, reference compound] | 10.6 mL/min/kg |
| [2H]C([2H])([2H])OC([2H])([2H])CNCc1ccc(-c2cc3nccc(Oc4ccc(NC(=O)C5(C(=O)Nc6ccc(F)cc6)CC5)cc4F)c3s2)nc1 [Hydrochloride of 002] | < 8.6 mL/min/kg |
| [2H]C([2H])([2H])OCCNCc1ccc(-c2cc3nccc(Oc4ccc(NC(=O)C5(C(=O)Nc6ccc(F)cc6)CC5)cc4F)c3s2)nc1 [Trifluoroacetate of 001] | < 8.6 mL/min/kg |
